TEST TARGET: Human immunodeficiency virus type 1 protease (Human immunodeficiency virus 1)
METHOD DESCRIPTION: Inhibitory concentration against human immunodeficiency virus-1 protease
Listing: IC50 of selected compounds
Hi! Could you send only the number? It should be in µM, unit omitted.

As a guide, the following entries are already answered.
[[record]]
compound = "CC(C)C[C@H](NC(=O)[C@@H](NC(=O)CCCCCCCCCCCCCCC(=O)N[C@H](CC(=O)N[C@@H](Cc1ccccc1)C(=O)O)C(N)=O)C(C)O)C(=O)N[C@@H](Cc1ccccc1)C(N)=O (stereo partly drawn)"
measurement_kind = "IC50"
readout_value = 0.0054

[[record]]
compound = "CC[C@H](C)[C@@H](NC(=O)C(NC(=O)CCCCCCCCCCCCCCC(=O)N[C@H](CC(=O)N[C@@H](Cc1ccccc1)C(=O)O)C(N)=O)C(C)(C)C)C(=O)N[C@@H](Cc1ccccc1)C(N)=O (stereo partly drawn)"
measurement_kind = "IC50"
readout_value = 7.7


Next compound, please.
Prompt line: If you can, please state the reported IC50 value of CC[C@H](C)[C@@H](NC(=O)[C@@H](NC(=O)CCCCCCCCCCCCCCC(=O)N[C@H](CC(=O)N[C@@H](Cc1ccccc1)C(=O)O)C(N)=O)[C@H](C)O)C(=O)N[C@@H](Cc1ccc(N)cc1)C(N)=O .
Response line: 3.6

Data credit: ChEMBL document CHEMBL1143555
